experiment: qHTS assay to identify small molecule antagonists of the constitutive androstane receptor (CAR) signaling pathway - cell viability counter screen (AID 1224837); settings: HepG2-CYP2B6-hCAR viability, CellTiter-Fluor, 23 h, co-treated with 50 nM CITCO; series mostly up to 92.4 µM; further: nearly all actives have a fitted effect of over 45% in size
Inconclusive results are not listed. The source made the active and inactive calls. The call rests on the fitted dose curve; in most records, active means well fitted cell-killing curve with a large enough effect in the repeat runs; inconclusive means weak or mixed curves, or effect the other way; inactive means flat fitted curve, though single readings scatter.
Answer with one of the outcomes given here: active, inactive

What is the recorded call for this molecule in the test? CC(CO)CO
inactive

Further cases:
What is the recorded call for this molecule in the test? Cc1ccc(C(C)(C)O)cc1
inactive

What is the recorded call for this molecule in the test? CC(C)C(O)(c1ccc(OC(F)(F)F)cc1)c1cncnc1 (configuration not stated)
inactive

What is the recorded call for this molecule in the test? CCOc1cccc(-n2cc(C(=O)N3CCN(c4cc(C(=O)O)c5ccccc5c4)CC3)nc2-c2ccc(C)cc2)c1
inactive

* * *

experiment: A CellTox Green Cytotoxicity Assay to monitor cytotoxicity in HepG2 cells - 32 hour (AID 1224883); details: CellTox Green fluorescence; series mostly up to 76.8 µM; further: nearly all actives have a fitted effect of over 50% in size
Inconclusive results are not listed. Active and inactive are the calls of the source. Calls follow the shape of the dose curve; as a rule, active = well fitted activation curve with a large enough effect in the repeat runs; inconclusive = weak or mixed curves; inactive = flat fitted curve, though single readings scatter.
Answer with one of the outcomes given here: true for active, false for inactive

Please review the following examples before continuing.
What is the recorded call for this compound in the test? CC(C)=CCC1C(=O)N(c2ccccc2)N(c2ccccc2)C1=O
false

What is the recorded call for this compound in the test? NC1[C@H]2CN(c3nc4c(cc3F)c(=O)c(C(=O)O)cn4-c3ccc(F)cc3F)C[C@@H]12 (some centres not stated)
false

What is the recorded call for this compound in the test? C=C1CCC2CC1C2(C)C (configuration not stated)
false

Further cases:
What is the recorded call for this compound in the test? CCCCC(CC)COP(=O)(O)O (configuration not stated)
false

* * *

experiment: qHTS assay to identify small molecule agonists of the estrogen receptor alpha (ER-alpha) signaling pathway in the presence of an antagonist - cell viability counter screen (AID 1259386); settings: VM7Luc4E2 viability, CellTiter-Fluor fluorescence, 22 h; series mostly up to 92.4 µM;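 further: cells exposed to compounds for 22 h at 37 °C before the viability read; nearly all actives have a fitted effect of over 30% in size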
Inconclusive results are not listed. Activity calls are given as the source filed them. Calls come from the whole dose curve; as a rule, active = well fitted cell-killing curve with a large enough effect in the repeat runs; inconclusive = weak or mixed curves, or effect the other way; inactive = no such curve, though single readings can be large or run the other way.
Answer with one of the outcomes given here: active, inactive

Please review the following examples before continuing.
What is the recorded call for this compound in the test? CC1(C)[C@@H](OC(=O)CCC(=O)O)CC[C@]2(C)[C@H]3C(=O)C=C4[C@@H]5C[C@@](C)(C(=O)O)CC[C@]5(C)CC[C@@]4(C)[C@]3(C)CC[C@@H]12
inactive

What is the recorded call for this compound in the test? CC(C)Nc1cccnc1N1CCN(C(=O)c2cc3cc(NS(C)(=O)=O)ccc3[nH]2)CC1
inactive

What is the recorded call for this compound in the test? CC(C)C=O
inactive

What is the recorded call for this compound in the test? O=C1C(=O)c2ccccc2C(O)=C1C1CCC(c2ccc(Cl)cc2)CC1 (stereo unspecified)
inactive

What is the recorded call for this compound in the test? C1COC1
inactive

What is the recorded call for this compound in the test? CCCCC(CC)CN (stereo unspecified)
inactive

What is the recorded call for this compound in the test? CC(C)c1nc(CN(C)C(=O)N[C@H](C(=O)N[C@@H](Cc2ccccc2)C[C@H](O)[C@H](Cc2ccccc2)NC(=O)OCc2cncs2)C(C)C)cs1
active

What is the recorded call for this compound in the test? C[C@]12CC[C@@H]3c4ccc(O)cc4CC[C@H]3[C@@H]1CC[C@@H]2OC(=O)CCC1CCCC1
inactive

Further cases:
What is the recorded call for this compound in the test? COC(=O)C1=C(C)NC(C)=C(C(=O)O[C@@H]2CCCN(Cc3ccccc3)C2)[C@@H]1c1cccc([N+](=O)[O-])c1
inactive

What is the recorded call for this compound in the test? C=C(C)C(=O)OCCOCCOC(=O)C(=C)C
inactive

What is the recorded call for this compound in the test? CCCCOc1ccc(OCCCN2CCOCC2)cc1
inactive

* * *

target: Cytochrome P450 2C19 (Homo sapiens) (UniProt P33261); test: Cytochrome P450 Family 2 Subfamily C Member 19 (CYP2C19) small molecule antagonists: luciferase reporter qHTS assay (AID 1671197); details: P450-Glo CYP2C19 enzyme, luciferin luminescence, 1 h; series mostly up to 52.9 µM; further: nearly all actives have a fitted effect of over 65% in size; further: potency means the concentration at half of the fitted maximal effect
Sequence (P33261 whole entry, looked up): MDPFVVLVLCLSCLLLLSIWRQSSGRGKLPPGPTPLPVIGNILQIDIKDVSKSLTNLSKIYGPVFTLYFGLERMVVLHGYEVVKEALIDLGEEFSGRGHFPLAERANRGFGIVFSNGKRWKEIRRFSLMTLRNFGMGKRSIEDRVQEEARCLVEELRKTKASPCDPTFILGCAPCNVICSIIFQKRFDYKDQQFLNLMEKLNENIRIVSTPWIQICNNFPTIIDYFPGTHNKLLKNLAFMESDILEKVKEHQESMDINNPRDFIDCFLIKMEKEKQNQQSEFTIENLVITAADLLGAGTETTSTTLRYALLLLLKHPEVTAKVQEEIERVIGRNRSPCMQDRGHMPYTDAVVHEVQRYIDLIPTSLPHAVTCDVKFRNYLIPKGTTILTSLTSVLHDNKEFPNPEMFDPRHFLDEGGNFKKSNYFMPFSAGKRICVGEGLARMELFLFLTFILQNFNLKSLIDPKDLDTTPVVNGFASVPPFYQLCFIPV
Inconclusive results are not listed. The source made the active and inactive calls. Calls follow the shape of the dose curve; as a rule, active = well fitted inhibition curve with a large enough effect in the repeat runs; inconclusive = weak or mixed curves; inactive = no such curve, though single readings can be large or run the other way.
MEASURED_PARAMETER: Potency

Example molecules with recorded Potency:
Requested read-out: Potency. Entry: COc1ccccc1NC(=O)c1cc2ccccc2cc1O
11.2 µM (active)

Requested read-out: Potency. Entry: O=c1[nH]c2ccc(Cl)cc2o1
79.6 µM (active)

Requested read-out: Potency. Entry: Cc1cc(=O)c2c(O)c3c(O)cc(=O)c4c3c3c(cc(O)c1c23)C(C)(C)C=4O
inactive

Requested read-out: Potency. Entry: C=CC(=O)[O-].C=CC(=O)[O-].[Zn+2]
27.6 µM (active)

Requested read-out: Potency. Entry: CC1=C(Br)C(=O)C(Br)=C/C1=C(/c1ccccc1S(=O)(=O)O)c1cc(Br)c(O)c(Br)c1C
27.2 µM (active)

Quick batch: Potency for everything below.
1. c1ccc2sc(SN(C3CCCCC3)C3CCCCC3)nc2c1
2. CN1C(=O)c2ccccc2C1=O
3. C[C@]1(Cn2ccnn2)[C@H](C(=O)O)N2C(=O)C[C@H]2S1(=O)=O
4. CC(C)(C)CC(=O)OCC(=O)[C@@]1(O)CC[C@H]2[C@@H]3CCC4=CC(=O)C=C[C@]4(C)[C@H]3[C@@H](O)C[C@@]21C
5. CO[C@]1(NC(=O)CSC(F)F)C(=O)N2C(C(=O)O)=C(CSc3nnnn3CCO)CO[C@H]21
6. CCOc1ccc(Cc2nccc3cc(OCC)c(OCC)cc23)cc1OCC
7. Clc1ccc(Nc2nnc(Cc3ccncc3)c3ccccc23)cc1
8. O=C1c2ccccc2C(=O)C1c1nc2ccccc2c(Br)c1O

1: 7.87 µM (active); 2: 79.6 µM (active); 3: inactive; 4: 9.77 µM (active); 5: inactive; 6: 7.76 µM (active); 7: 2.19 µM (active); 8: inactive

Quick batch: Potency for everything below.
1. CS(=O)(=O)c1ccc(-c2cn3ccccc3n2)cc1
2. COC(=O)CS
3. C[C@]12CC[C@@H]3c4ccc(O)cc4CC[C@H]3[C@@H]1CC[C@@H]2OC(=O)CCC1CCCC1

["24.5 µM (active)", "inactive", "14.2 µM (active)"]

Quick batch: Potency for everything below.
1. CCOC(=O)[C@H](CCc1ccccc1)N[C@@H](C)C(=O)N(CC(=O)O)C1Cc2ccccc2C1
2. CC[N+](CC)(CCNC(=O)C(=O)NCC[N+](CC)(CC)Cc1ccccc1Cl)Cc1ccccc1Cl
3. CCOC(=O)c1ccc(I)cc1
4. CCc1ccccc1

6.92 µM (active)
inactive
80.4 µM (active)
inactive

* * *

system: thyroid hormone receptor (rat, GH3 cells); test: qHTS assay to identify small molecule agonists of the thyroid receptor (TR) signaling pathway (AID 743066); details: GH3.TRE-Luc cells, TR agonist luciferase, 24 h; series mostly up to 83.9 µM
Records with an inconclusive call do not appear. The source made the active and inactive calls. The call rests on the fitted dose curve.
MEASURED_PARAMETER: outcome

Example molecules with recorded outcome:
Requested read-out: outcome. Entry: O=c1[nH]ncc2ccccc12
inactive

Requested read-out: outcome. Entry: Cc1ccco1
inactive

Requested read-out: outcome. Entry: Oc1cc2c(cc1O)[C@H]1c3ccc(O)c(O)c3OC[C@@]1(O)C2
inactive

Requested read-out: outcome. Entry: Oc1cccc(Nc2ccccc2)c1
inactive

Requested read-out: outcome. Entry: C[C@@]12CCC[C@H]1[C@@H]1CC[C@H]3C[C@@H](O)CC[C@]3(C)[C@H]1CC2
inactive

Requested read-out: outcome. Entry: O=Cc1c2ccccc2c(Cl)c2ccccc12
inactive

Requested read-out: outcome. Entry: O=[N+]([O-])c1ccc(O/N=C/c2cc(Br)c(O)c(Br)c2)c([N+](=O)[O-])c1
inactive

Requested read-out: outcome. Entry: CO[C@]1(NC(=O)CSC(F)F)C(=O)N2C(C(=O)O)=C(CSc3nnnn3CCO)CO[C@H]21
inactive

Requested read-out: outcome. Entry: CC(C)Nc1cccnc1N1CCN(C(=O)c2cc3cc(NS(C)(=O)=O)ccc3[nH]2)CC1
inactive

Requested read-out: outcome. Entry: FC(F)(F)c1ccccc1Cl
inactive

Quick batch: outcome for everything below.
1. CCCCC(CC)COP(=O)(O)O (configuration not stated)
2. Cc1cc(O)ccc1O

1: inactive; 2: inactive

* * *

assay: qHTS RealTime-Glo MT Cell Viability Assay in HepG2 cells - 40 hour (AID 1224870); conditions: RealTime-Glo luminescence; series mostly up to 76.8 µM; further: nearly all actives have a fitted effect of over 50% in size
Results filed as inconclusive are left out. Calls of active or inactive are those of the source. The call rests on the fitted dose curve; in most records, active means well fitted cell-killing curve with a large enough effect in the repeat runs; inconclusive means weak or mixed curves, or effect the other way; inactive means flat fitted curve, though single readings scatter.
MEASURED_PARAMETER: outcome

Requested read-out: outcome. Entry: CCCCCC[C@@H](O)C/C=C\CCCCCCCC(=O)OCC(O)CO (stereo partly specified)
inactive

Requested read-out: outcome. Entry: CCCC(C(=O)OCCN(CC)CC)(c1ccccc1)c1ccccc1
inactive

Requested read-out: outcome. Entry: C=C1C[C@@]23CC[C@H]4[C@@](C)(CCC[C@@]4(C)C(=O)O[C@@H]4O[C@H](CO)[C@@H](O)[C@H](O)[C@H]4O)[C@@H]2CC[C@]1(O[C@@H]1O[C@H](CO)[C@@H](O)[C@H](O[C@@H]2O[C@H](CO)[C@@H](O)[C@H](O)[C@H]2O)[C@H]1O[C@@H]1O[C@H](CO)[C@@H](O)[C@H](O)[C@H]1O)C3
inactive

Requested read-out: outcome. Entry: CCC1NC(=O)c2cc(S(N)(=O)=O)c(Cl)cc2N1 (stereo unspecified)
inactive

Requested read-out: outcome. Entry: CCCCCCC(C)(C)C(=O)O
inactive

Quick batch: outcome for everything below.
1. CC1(C)[C@@H](OC(=O)CCC(=O)O)CC[C@]2(C)[C@H]3C(=O)C=C4[C@@H]5C[C@@](C)(C(=O)O)CC[C@]5(C)CC[C@@]4(C)[C@]3(C)CC[C@@H]12
2. Cc1cc2c(OCC(CNC(C)(C)C)OC(=O)c3ccccc3)cccc2[nH]1 (stereo unspecified)
3. CCOC(=O)c1ccc(OCCN2C[C@H](O)[C@@H](O)[C@H](O)[C@H]2CO)cc1
4. OCCOCC#CCOCCO
5. COC(=O)CS

["inactive", "inactive", "inactive", "inactive", "inactive"]

Requested read-out: outcome. Entry: COc1cc(C(=O)NCCCCCC(=O)O)cc(OC)c1OC
inactive

Reference source: PubChem BioAssay (Tox21)
